Reference source for all entries: ChEMBL document CHEMBL5108036

- Tested on: Erythrocyte
- PROTOCOL_SUMMARY: Hemolytic activity in human RBC measured after 1 hr by microplate reader method
- Type: toxicity, cell-based
- CONDITION_NOTES: erythrocyte
Would you kindly list EC50 for each of these molecules?
Answers are plain numbers, in µg/mL.

Worked examples follow.
molecule_smiles=Cl.Cl.N=C(N)NCCCN1C(=O)N(CCCNC(=N)N)C(=O)C(Cc2ccc(Br)c(Cl)c2)(Cc2ccc(Br)c(Cl)c2)C1=O assay_metric=EC50 result_unit=µg/mL value_reported=291
molecule_smiles=Cl.Cl.NCCCN1C(=O)N(CCCN)C(=O)C(Cc2ccc(Br)c(Cl)c2)(Cc2ccc(Br)c(Cl)c2)C1=O assay_metric=EC50 result_unit=µg/mL value_reported=271
molecule_smiles=N=C(N)NCCCN1C(=O)N(CCCNC(=N)N)C(=O)C(Cc2cc(C(F)(F)F)cc(C(F)(F)F)c2)(Cc2cc(C(F)(F)F)cc(C(F)(F)F)c2)C1=O.O=C(O)C(F)(F)F.O=C(O)C(F)(F)F assay_metric=EC50 result_unit=µg/mL value_reported=445
molecule_smiles=Cl.Cl.NCCCN1C(=O)N(CCCN)C(=O)C(Cc2cc(C(F)(F)F)cc(C(F)(F)F)c2)(Cc2cc(C(F)(F)F)cc(C(F)(F)F)c2)C1=O assay_metric=EC50 result_unit=µg/mL value_reported=224

Query molecule follows.
Request: Which value of EC50 has been reported for `Cl.Cl.N=C(N)NCCCN1C(=O)N(CCCNC(=N)N)C(=O)C(Cc2cc(C(F)(F)F)cc(C(F)(F)F)c2)(Cc2cc(C(F)(F)F)cc(C(F)(F)F)c2)C1=O` in the records?
Result: 118

---

- Test system: Staphylococcus aureus
- PROTOCOL_SUMMARY: Antibacterial activity against Staphylococcus aureus ATCC 9144 incubated for 48 hrs and measured by broth microdilution assay
- Assay type: functional
ASSAY_METRIC: MIC (µg/mL)
Give bare numbers, in µg/mL.

Worked examples follow.
compound=N=C(N)NCCCN1C(=O)N(CCCNC(=N)N)C(=O)C(Cc2cc(C(F)(F)F)cc(C(F)(F)F)c2)(Cc2cc(C(F)(F)F)cc(C(F)(F)F)c2)C1=O.O=C(O)C(F)(F)F.O=C(O)C(F)(F)F tested_target="Staphylococcus aureus" result_unit=µg/mL value_reported=4
compound=N=C(N)NCCCCN1C(=O)N(CCCCNC(=N)N)C(=O)C(Cc2cc(Br)c(Br)cc2Br)(Cc2cc(Br)c(Br)cc2Br)C1=O.O=C(O)C(F)(F)F.O=C(O)C(F)(F)F tested_target="Staphylococcus aureus" result_unit=µg/mL value_reported=4
compound=Cl.Cl.NCCCN1C(=O)N(CCCN)C(=O)C(Cc2cc(C(F)(F)F)cc(C(F)(F)F)c2)(Cc2cc(C(F)(F)F)cc(C(F)(F)F)c2)C1=O tested_target="Staphylococcus aureus" result_unit=µg/mL value_reported=8

Return reported MIC values for all items listed beneath this line.
1. NCCCCN1C(=O)N(CCCCN)C(=O)C(Cc2ccc3ccccc3n2)(Cc2ccc3ccccc3n2)C1=O.O=C(O)C(F)(F)F.O=C(O)C(F)(F)F
2. N=C(N)NCCCCN1C(=O)N(CCCCNC(=N)N)C(=O)C(Cc2cc(Br)cc(Br)c2)(Cc2ccc3ccccc3n2)C1=O.O=C(O)C(F)(F)F.O=C(O)C(F)(F)F (configuration not stated)
3. NCCCCN1C(=O)N(CCCCN)C(=O)C(Cc2cc(Br)c(Br)cc2Br)(Cc2cc(Br)c(Br)cc2Br)C1=O.O=C(O)C(F)(F)F.O=C(O)C(F)(F)F
4. N=C(N)N[C@H]1C[C@H](N2C(=O)N([C@H]3C[C@H](NC(=N)N)C3)C(=O)C(Cc3cc(Br)cc(Br)c3)(Cc3cc(Br)cc(Br)c3)C2=O)C1.O=C(O)C(F)(F)F.O=C(O)C(F)(F)F
5. N=C(N)NCCCCN1C(=O)N(CCCCNC(=N)N)C(=O)C(Cc2cc(Br)cc(Br)c2)(Cc2cc(Br)cc(Br)c2)C1=O.O=C(O)C(F)(F)F.O=C(O)C(F)(F)F
6. O=C([O-])C(F)(F)F.O=C([O-])C(F)(F)F.O=C1N(CCCC[n+]2ccccc2)C(=O)C(Cc2cc(Br)cc(Br)c2)(Cc2cc(Br)cc(Br)c2)C(=O)N1CCCC[n+]1ccccc1

Result:
[256, 2, 4, 2, 2, 2]

Return reported MIC values for all items listed beneath this line.
1. N=C(N)NCCCCN1C(=O)N(CCCCNC(=N)N)C(=O)C(Cc2cc(Br)cc(Br)c2)(Cc2cc(C(F)(F)F)cc(C(F)(F)F)c2)C1=O.O=C(O)C(F)(F)F.O=C(O)C(F)(F)F (configuration not stated)
2. N=C(N)NCCCCN1C(=O)N(CCCCNC(=N)N)C(=O)C(Cc2c(Br)cc(Br)cc2Br)(Cc2c(Br)cc(Br)cc2Br)C1=O.O=C(O)C(F)(F)F.O=C(O)C(F)(F)F
3. CCCCCCC1(Cc2cc(Br)cc(Br)c2)C(=O)N(CCCCN)C(=O)N(CCCCN)C1=O.O=C(O)C(F)(F)F.O=C(O)C(F)(F)F

Result:
2
2
4
